Tested on: monoclonal antibody 12-9-9
Test: In vitro binding assay (ELISA) with monoclonal antibody 12-9-9
Parameters: species or system mouse; key: 0: no binding to 12-9-9 detectable in ELISA; 1: weak binding: binding of mimotope weaker compared to the minimal original sequence p5436; 2: strong binding: binding of mimotope similar to the minimal original sequence p5436
Details: binding capacity to 12-9-9 in ELISA, peptide-BSA coated (1 μM), compared with p5436
reported.endpoint: Binding

Solved cases (5 shown):
RSEDGAPC [p5607, mimotope] | 2
KQEEGAPC [p5447, mimotope] | 2
CTPSWKGE [p5560, mimotope] | 2
TPSWKGEC [p5464, mimotope] | 2
LGKNEEGAPQC [p4453, reference compound] | 2

(A) KNEDGAPC [p5446, mimotope]
(B) TPAWKGEC [p5551, mimotope]
Task: Which record would sort first by descending Binding, A or B ? // output: label of the selected item
Result: A

(I) CKNEEGAP [p5435, reference compound]
(II) HNAEGAPC [p5598, mimotope]
Task: Please indicate which item has the smaller measured Binding: I versus II // output: label of the selected item
Result: II

(A) HSAEGAPC [p5604, mimotope]
(B) RSDEGAPC [p5606, mimotope]
Task: Which record would sort first by descending Binding, A or B ? // output: label of the selected item
Result: B
